Measured LD50, listed per entry for reference.
# method: in vivo
# test conditions: iv, Rat
measurement label: LD50

[[record]]
compound = "CCC1(O)CC(OC2CC(N(C)C)C(OC3CC(O)C(OC4CCC(O)C(C)O4)C(C)O3)C(C)O2)c2c(cc3c(c2O)C(=O)c2c(O)cccc2C3=O)C1C(=O)OC (centres unmarked)"
reading = "25 to 30 mg/kg"

[[record]]
compound = "CCC1(O)CC(OC2CC(N(C)C)C(OC3CC(O)C(OC4CCC(O)C(C)O4)C(C)O3)C(C)O2)c2c(cc3c(c2O)C(=O)c2c(O)ccc(O)c2C3=O)C1C(=O)OC (centres unmarked)"
reading = "10 to 15 mg/kg"

